# TARGET DESC: Protein kinase C theta type (Homo sapiens)
# Sequence (Q04759 whole entry): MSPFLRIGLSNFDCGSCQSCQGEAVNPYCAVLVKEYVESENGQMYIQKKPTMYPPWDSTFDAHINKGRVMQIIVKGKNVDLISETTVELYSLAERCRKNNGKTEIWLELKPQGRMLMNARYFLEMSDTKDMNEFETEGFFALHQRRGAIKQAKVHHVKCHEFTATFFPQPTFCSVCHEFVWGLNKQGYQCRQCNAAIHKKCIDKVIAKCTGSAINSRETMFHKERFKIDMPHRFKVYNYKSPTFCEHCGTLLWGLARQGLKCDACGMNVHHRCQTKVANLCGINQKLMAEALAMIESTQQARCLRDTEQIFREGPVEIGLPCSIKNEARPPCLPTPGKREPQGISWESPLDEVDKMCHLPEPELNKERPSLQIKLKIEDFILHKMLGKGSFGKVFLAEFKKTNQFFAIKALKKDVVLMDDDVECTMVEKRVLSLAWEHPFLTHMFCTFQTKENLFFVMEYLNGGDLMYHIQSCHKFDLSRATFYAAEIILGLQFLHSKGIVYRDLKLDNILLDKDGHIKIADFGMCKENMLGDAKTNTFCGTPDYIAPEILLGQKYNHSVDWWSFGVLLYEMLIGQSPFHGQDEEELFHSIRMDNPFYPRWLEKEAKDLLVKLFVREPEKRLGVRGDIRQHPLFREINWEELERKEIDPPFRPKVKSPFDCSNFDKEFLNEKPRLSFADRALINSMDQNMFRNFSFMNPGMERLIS
# EXPERIMENTAL PROTOCOL: Inhibition of recombinant human PKCtheta assessed as [33P]-ATP incorporation into tridecapeptide substrate after 60 mins by scintillation proximity assay
READOUT KIND: IC50

{"COMPOUND": "NCCNc1nc(-c2ccncc2)cc2ncccc12", "TARGET DESC": "Protein kinase C theta type (Homo sapiens)", "READOUT KIND": "IC50", "OBSERVED VALUE": "> 1000 nM"}
{"COMPOUND": "OCCNc1nc(-c2ccncc2)cc2cnccc12", "TARGET DESC": "Protein kinase C theta type (Homo sapiens)", "READOUT KIND": "IC50", "OBSERVED VALUE": "743 nM"}
{"COMPOUND": "NCCNc1nc(-c2ccncc2)cc2ccccc12", "TARGET DESC": "Protein kinase C theta type (Homo sapiens)", "READOUT KIND": "IC50", "OBSERVED VALUE": "> 1000 nM"}
{"COMPOUND": "c1cc(-c2cc3cnccc3c(N3CCCNCC3)n2)ccn1", "TARGET DESC": "Protein kinase C theta type (Homo sapiens)", "READOUT KIND": "IC50", "OBSERVED VALUE": "77 nM"}
{"COMPOUND": "CC(C)(N)CNc1nc(-c2cccnc2)cc2cnccc12", "TARGET DESC": "Protein kinase C theta type (Homo sapiens)", "READOUT KIND": "IC50", "OBSERVED VALUE": "> 1000 nM"}
{"COMPOUND": "c1cc(-c2cc3cnccc3c(N3CCNCC3)n2)ccn1", "TARGET DESC": "Protein kinase C theta type (Homo sapiens)", "READOUT KIND": "IC50", "OBSERVED VALUE": "109 nM"}
{"COMPOUND": "CN(CCN)c1nc(-c2ccncc2)cc2cnccc12", "TARGET DESC": "Protein kinase C theta type (Homo sapiens)", "READOUT KIND": "IC50", "OBSERVED VALUE": "350 nM"}
{"COMPOUND": "NC(CNc1nc(-c2ccncc2)cc2cnccc12)Cc1ccccc1 (configuration not stated)", "TARGET DESC": "Protein kinase C theta type (Homo sapiens)", "READOUT KIND": "IC50", "OBSERVED VALUE": "> 1000 nM"}
{"COMPOUND": "NCCNc1nc(-c2ccncc2)nc2cnccc12", "TARGET DESC": "Protein kinase C theta type (Homo sapiens)", "READOUT KIND": "IC50", "OBSERVED VALUE": "> 1000 nM"}
{"COMPOUND": "NCCCNc1nc(-c2ccncc2)cc2cnccc12", "TARGET DESC": "Protein kinase C theta type (Homo sapiens)", "READOUT KIND": "IC50", "OBSERVED VALUE": "97 nM"}
{"COMPOUND": "CC(C)Nc1cc(-c2cc3cnccc3c(NCC(C)(C)N)n2)ccn1", "TARGET DESC": "Protein kinase C theta type (Homo sapiens)", "READOUT KIND": "IC50", "OBSERVED VALUE": "> 1000 nM"}
{"COMPOUND": "Cc1cnccc1-c1cc2cnccc2c(NCC(C)(C)N)n1", "TARGET DESC": "Protein kinase C theta type (Homo sapiens)", "READOUT KIND": "IC50", "OBSERVED VALUE": "738 nM"}
{"COMPOUND": "NCCNc1nc(-c2ccncc2)cc2ccncc12", "TARGET DESC": "Protein kinase C theta type (Homo sapiens)", "READOUT KIND": "IC50", "OBSERVED VALUE": "> 1000 nM"}
{"COMPOUND": "CC(C)(N)CNc1nc(-c2ccnc(N)c2)cc2cnccc12", "TARGET DESC": "Protein kinase C theta type (Homo sapiens)", "READOUT KIND": "IC50", "OBSERVED VALUE": "496 nM"}
{"COMPOUND": "CC(C)(N)CNc1nc(-c2ccncc2F)cc2cnccc12", "TARGET DESC": "Protein kinase C theta type (Homo sapiens)", "READOUT KIND": "IC50", "OBSERVED VALUE": "140 nM"}
{"COMPOUND": "NCCOc1nc(-c2ccncc2)cc2cnccc12", "TARGET DESC": "Protein kinase C theta type (Homo sapiens)", "READOUT KIND": "IC50", "OBSERVED VALUE": "948 nM"}
{"COMPOUND": "NC1CCCN(c2nc(-c3ccncc3)cc3cnccc23)C1 (configuration not stated)", "TARGET DESC": "Protein kinase C theta type (Homo sapiens)", "READOUT KIND": "IC50", "OBSERVED VALUE": "132 nM"}
{"COMPOUND": "C[C@H](N)CNc1nc(-c2ccncc2)cc2cnccc12", "TARGET DESC": "Protein kinase C theta type (Homo sapiens)", "READOUT KIND": "IC50", "OBSERVED VALUE": "55 nM"}
{"COMPOUND": "NCCNc1cc(-c2ccncc2)cc2cnccc12", "TARGET DESC": "Protein kinase C theta type (Homo sapiens)", "READOUT KIND": "IC50", "OBSERVED VALUE": "355 nM"}
{"COMPOUND": "O=C1CN(c2nc(-c3ccncc3)cc3cnccc23)CCN1", "TARGET DESC": "Protein kinase C theta type (Homo sapiens)", "READOUT KIND": "IC50", "OBSERVED VALUE": "> 1000 nM"}
{"COMPOUND": "CC(C)(N)CNc1nc(-c2ccncc2Cl)cc2cnccc12", "TARGET DESC": "Protein kinase C theta type (Homo sapiens)", "READOUT KIND": "IC50", "OBSERVED VALUE": "93 nM"}
{"COMPOUND": "CNCCNc1nc(-c2ccncc2)cc2cnccc12", "TARGET DESC": "Protein kinase C theta type (Homo sapiens)", "READOUT KIND": "IC50", "OBSERVED VALUE": "997 nM"}

---

# TARGET DESC: Protein kinase C alpha type (Homo sapiens, UniProt P17252)
# EXPERIMENTAL PROTOCOL: Inhibition of recombinant human PKCalpha assessed as [33P]-ATP incorporation into tridecapeptide substrate after 60 mins by scintillation proximity assay
pIC50: −log10 of the molar value.
READOUT KIND: pIC50

{"COMPOUND": "CC(C)(N)CNc1nc(-c2ccncc2F)cc2cnccc12", "TARGET DESC": "Protein kinase C alpha type (Homo sapiens, UniProt P17252)", "OBSERVED VALUE": "< 6.00"}
{"COMPOUND": "CC(C)(N)CNc1nc(-c2cccnc2)cc2cnccc12", "TARGET DESC": "Protein kinase C alpha type (Homo sapiens, UniProt P17252)", "OBSERVED VALUE": "< 6.00"}
{"COMPOUND": "c1cc(-c2cc3cnccc3c(N3CCCNCC3)n2)ccn1", "TARGET DESC": "Protein kinase C alpha type (Homo sapiens, UniProt P17252)", "OBSERVED VALUE": 6.36}
{"COMPOUND": "NCCNc1nc(-c2ccncc2)cc2ncccc12", "TARGET DESC": "Protein kinase C alpha type (Homo sapiens, UniProt P17252)", "OBSERVED VALUE": "< 6.00"}
{"COMPOUND": "CNCCNc1nc(-c2ccncc2)cc2cnccc12", "TARGET DESC": "Protein kinase C alpha type (Homo sapiens, UniProt P17252)", "OBSERVED VALUE": "< 6.00"}
{"COMPOUND": "NCCNc1cc(-c2ccncc2)cc2cnccc12", "TARGET DESC": "Protein kinase C alpha type (Homo sapiens, UniProt P17252)", "OBSERVED VALUE": "< 6.00"}
{"COMPOUND": "NC1CCCN(c2nc(-c3ccncc3)cc3cnccc23)C1 (stereo not given)", "TARGET DESC": "Protein kinase C alpha type (Homo sapiens, UniProt P17252)", "OBSERVED VALUE": 6.11}
{"COMPOUND": "NCCCNc1nc(-c2ccncc2)cc2cnccc12", "TARGET DESC": "Protein kinase C alpha type (Homo sapiens, UniProt P17252)", "OBSERVED VALUE": 6.17}
{"COMPOUND": "NCCNc1nc(-c2ccncc2)cc2ccccc12", "TARGET DESC": "Protein kinase C alpha type (Homo sapiens, UniProt P17252)", "OBSERVED VALUE": "< 6.00"}
{"COMPOUND": "NCCNc1nc(-c2ccncc2)cc2ccncc12", "TARGET DESC": "Protein kinase C alpha type (Homo sapiens, UniProt P17252)", "OBSERVED VALUE": "< 6.00"}

---

# TARGET DESC: Protein kinase C epsilon type (Homo sapiens)
# Sequence (Q02156 whole entry): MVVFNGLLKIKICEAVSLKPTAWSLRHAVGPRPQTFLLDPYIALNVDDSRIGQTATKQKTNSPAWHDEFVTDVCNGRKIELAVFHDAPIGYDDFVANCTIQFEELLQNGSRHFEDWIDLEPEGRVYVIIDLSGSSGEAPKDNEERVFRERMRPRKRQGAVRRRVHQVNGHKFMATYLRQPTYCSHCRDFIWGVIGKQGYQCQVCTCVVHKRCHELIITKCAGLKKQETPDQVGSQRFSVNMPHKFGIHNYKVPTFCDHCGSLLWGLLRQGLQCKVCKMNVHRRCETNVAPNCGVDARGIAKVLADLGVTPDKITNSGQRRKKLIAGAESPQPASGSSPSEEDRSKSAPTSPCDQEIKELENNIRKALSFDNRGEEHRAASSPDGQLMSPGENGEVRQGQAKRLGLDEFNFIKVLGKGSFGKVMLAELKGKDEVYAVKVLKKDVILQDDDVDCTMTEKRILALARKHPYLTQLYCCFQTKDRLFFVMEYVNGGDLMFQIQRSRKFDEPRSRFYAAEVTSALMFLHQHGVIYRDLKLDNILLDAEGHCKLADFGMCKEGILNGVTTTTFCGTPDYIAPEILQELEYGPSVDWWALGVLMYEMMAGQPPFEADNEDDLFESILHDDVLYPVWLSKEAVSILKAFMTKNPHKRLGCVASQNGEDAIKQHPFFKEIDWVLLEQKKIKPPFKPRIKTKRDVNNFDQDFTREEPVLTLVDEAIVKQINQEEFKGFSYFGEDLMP
# EXPERIMENTAL PROTOCOL: Inhibition of recombinant human PKCepsilon assessed as [33P]-ATP incorporation into tridecapeptide substrate after 60 mins by scintillation proximity assay
Parameter log10 IC50: see the listing below.
READOUT KIND: log10 IC50 (log10 of the value in nM)

{"COMPOUND": "NC(CNc1nc(-c2ccncc2)cc2cnccc12)Cc1ccccc1 (configuration not stated)", "TARGET DESC": "Protein kinase C epsilon type (Homo sapiens)", "OBSERVED VALUE": 2.61}
{"COMPOUND": "O=C1CN(c2nc(-c3ccncc3)cc3cnccc23)CCN1", "TARGET DESC": "Protein kinase C epsilon type (Homo sapiens)", "OBSERVED VALUE": 2.90}
{"COMPOUND": "NCCCNc1nc(-c2ccncc2)cc2cnccc12", "TARGET DESC": "Protein kinase C epsilon type (Homo sapiens)", "OBSERVED VALUE": 1.11}
{"COMPOUND": "CC(C)(N)CNc1nc(-c2ccnc(N)c2)cc2cnccc12", "TARGET DESC": "Protein kinase C epsilon type (Homo sapiens)", "OBSERVED VALUE": 2.17}
{"COMPOUND": "Cc1cnccc1-c1cc2cnccc2c(NCC(C)(C)N)n1", "TARGET DESC": "Protein kinase C epsilon type (Homo sapiens)", "OBSERVED VALUE": 2.12}
{"COMPOUND": "NCCOc1nc(-c2ccncc2)cc2cnccc12", "TARGET DESC": "Protein kinase C epsilon type (Homo sapiens)", "OBSERVED VALUE": 2.08}
{"COMPOUND": "CN(CCN)c1nc(-c2ccncc2)cc2cnccc12", "TARGET DESC": "Protein kinase C epsilon type (Homo sapiens)", "OBSERVED VALUE": 1.38}
{"COMPOUND": "NCCNc1nc(-c2ccncc2)cc2ccccc12", "TARGET DESC": "Protein kinase C epsilon type (Homo sapiens)", "OBSERVED VALUE": 2.94}
{"COMPOUND": "NCCNc1nc(-c2ccncc2)nc2cnccc12", "TARGET DESC": "Protein kinase C epsilon type (Homo sapiens)", "OBSERVED VALUE": 1.58}
{"COMPOUND": "NCCNc1cc(-c2ccncc2)cc2cnccc12", "TARGET DESC": "Protein kinase C epsilon type (Homo sapiens)", "OBSERVED VALUE": 1.64}
{"COMPOUND": "C[C@H](N)CNc1nc(-c2ccncc2)cc2cnccc12", "TARGET DESC": "Protein kinase C epsilon type (Homo sapiens)", "OBSERVED VALUE": 0.70}
